# log10 of Ki values compiled below
Target: D(3) dopamine receptor (Homo sapiens)
Sequence (P35462 whole entry): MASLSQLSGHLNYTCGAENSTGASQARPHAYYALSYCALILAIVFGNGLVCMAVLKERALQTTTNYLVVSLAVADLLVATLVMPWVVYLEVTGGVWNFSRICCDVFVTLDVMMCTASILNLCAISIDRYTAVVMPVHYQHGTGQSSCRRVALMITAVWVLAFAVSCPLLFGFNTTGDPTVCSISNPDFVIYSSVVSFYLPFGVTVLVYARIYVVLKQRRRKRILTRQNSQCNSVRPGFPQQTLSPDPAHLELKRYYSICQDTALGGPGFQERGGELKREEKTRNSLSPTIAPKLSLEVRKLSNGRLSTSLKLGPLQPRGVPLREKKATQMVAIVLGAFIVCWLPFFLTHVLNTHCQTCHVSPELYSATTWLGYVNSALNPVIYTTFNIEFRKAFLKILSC
RECORDED METRIC: log10 of Ki (log10 of the value in nM)

smiles_data=OC1(c2ccc(Cl)c(C(F)(F)F)c2)CCN(CCCC=C(c2ccc(F)cc2)c2ccc(F)cc2)CC1 recorded_metric="log10 of Ki" result=2.74
smiles_data=OC1(c2ccc(Cl)c(C(F)(F)F)c2)CCN(CCCC(c2ccccc2)c2ccccc2)CC1 recorded_metric="log10 of Ki" result=1.79
smiles_data=OC1(c2ccc(Cl)c(C(F)(F)F)c2)CCN(CCCCC(c2ccc(F)cc2)c2ccc(F)cc2)CC1 recorded_metric="log10 of Ki" result=2.32
smiles_data=COc1ccc(N(CCCCN2CCC(O)(c3ccc(Cl)c(C(F)(F)F)c3)CC2)c2ccc(OC)cc2)cc1 recorded_metric="log10 of Ki" result=2.64
smiles_data=OC1(c2ccc(Cl)c(C(F)(F)F)c2)CCN(CCCN(c2ccc(F)cc2)c2ccc(F)cc2)CC1 recorded_metric="log10 of Ki" result=2.68
smiles_data=OC1(c2ccc(Cl)c(C(F)(F)F)c2)CCN(CCCC(c2ccc(F)cc2)c2ccc(F)cc2)CC1 recorded_metric="log10 of Ki" result=2.13
smiles_data=OC1(c2ccc(Cl)c(C(F)(F)F)c2)CCN(CCCCN(c2ccc(F)cc2)c2ccc(F)cc2)CC1 recorded_metric="log10 of Ki" result=2.89

====

Ki data for Sodium-dependent serotonin transporter (Homo sapiens, UniProt P31645) follow.
RECORDED METRIC: Ki

smiles_data=OC1(c2ccc(Cl)c(C(F)(F)F)c2)CCN(CCCN(c2ccc(F)cc2)c2ccc(F)cc2)CC1 measured_on="Sodium-dependent serotonin transporter (Homo sapiens, UniProt P31645)" result="903 nM"
smiles_data=OC1(c2ccc(Cl)c(C(F)(F)F)c2)CCN(CCCCN(c2ccc(F)cc2)c2ccc(F)cc2)CC1 measured_on="Sodium-dependent serotonin transporter (Homo sapiens, UniProt P31645)" result="10000 nM"
smiles_data=OC1(c2ccc(Cl)c(C(F)(F)F)c2)CCN(CCCCC(c2ccc(F)cc2)c2ccc(F)cc2)CC1 measured_on="Sodium-dependent serotonin transporter (Homo sapiens, UniProt P31645)" result="428 nM"
smiles_data=COc1ccc(N(CCCCN2CCC(O)(c3ccc(Cl)c(C(F)(F)F)c3)CC2)c2ccc(OC)cc2)cc1 measured_on="Sodium-dependent serotonin transporter (Homo sapiens, UniProt P31645)" result="1310 nM"
smiles_data=OC1(c2ccc(Cl)c(C(F)(F)F)c2)CCN(CCCC(c2ccccc2)c2ccccc2)CC1 measured_on="Sodium-dependent serotonin transporter (Homo sapiens, UniProt P31645)" result="1180 nM"

====

Target: 5-hydroxytryptamine receptor 2C (Homo sapiens)
Sequence (P28335 whole entry): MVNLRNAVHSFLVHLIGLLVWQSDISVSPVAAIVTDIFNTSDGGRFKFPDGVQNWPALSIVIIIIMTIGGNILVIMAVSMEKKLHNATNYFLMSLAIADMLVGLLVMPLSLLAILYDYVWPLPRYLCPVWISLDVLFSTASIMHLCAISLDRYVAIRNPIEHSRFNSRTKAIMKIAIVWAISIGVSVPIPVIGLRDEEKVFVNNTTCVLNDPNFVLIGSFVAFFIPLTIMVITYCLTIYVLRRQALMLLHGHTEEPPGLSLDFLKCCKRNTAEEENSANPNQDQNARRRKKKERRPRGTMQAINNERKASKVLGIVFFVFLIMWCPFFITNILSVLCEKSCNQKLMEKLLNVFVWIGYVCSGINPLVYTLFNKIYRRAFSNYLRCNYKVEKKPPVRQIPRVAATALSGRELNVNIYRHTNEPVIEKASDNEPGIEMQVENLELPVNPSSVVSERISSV
Assay: Displacement of [3H]Mesulergine from human 5-HT2C receptor expressed in HEK293FlpIN cells by radioligand binding assay
# Ki values compiled below
RECORDED METRIC: Ki (nM)

compound="OC1(c2ccc(Cl)c(C(F)(F)F)c2)CCN(CCCC(c2ccc(F)cc2)c2ccc(F)cc2)CC1 [PENFLURIDOL]" result=881
compound=OC1(c2ccc(Cl)c(C(F)(F)F)c2)CCN(CCCC(c2ccccc2)c2ccccc2)CC1 result=2130
compound=COc1ccc(N(CCCCN2CCC(O)(c3ccc(Cl)c(C(F)(F)F)c3)CC2)c2ccc(OC)cc2)cc1 result=740
compound=OC1(c2ccc(Cl)c(C(F)(F)F)c2)CCN(CCCC=C(c2ccc(F)cc2)c2ccc(F)cc2)CC1 result=1600
compound=OC1(c2ccc(Cl)c(C(F)(F)F)c2)CCN(CCCCN(c2ccc(F)cc2)c2ccc(F)cc2)CC1 result=1130
compound=OC1(c2ccc(Cl)c(C(F)(F)F)c2)CCN(CCCCCc2ccc(F)cc2)CC1 result=2550
compound=OC1(c2ccc(Cl)c(C(F)(F)F)c2)CCN(CCCCC(c2ccc(F)cc2)c2ccc(F)cc2)CC1 result=1710
compound=OC1(c2ccc(Cl)c(C(F)(F)F)c2)CCN(CCCN(c2ccc(F)cc2)c2ccc(F)cc2)CC1 result=402

These data points were gathered from ChEMBL document CHEMBL4257579.
